Tested on: MS2 coat protein
Assay: apparent KD of MS2 coat protein; designed switch direction (-1 OFF switch, 1 ON switch): -1; higher = weaker reporter binding
Settings: Eterna round: R95; input ligand: none
Recorded apparent KD of MS2 coat protein values for a group of sequences are listed next.
Note: unit µM is implicit; provide only the numeric part.

• GCAUUGAGUGUGAGGAUAUGCUGGUCCUUGGAUCAGCAGAAGGCACAUGAGGAUCACCCAUGUGAAAACAAUGC [JL bmx4 3.12] (puzzle: Brourd's mod of Exclusion 4) = 0.0203

The sequence listed as GAUUAUGCGAGCUUUAGGGACAUGAGGAUCACCCAUGUUCGUCUUAUUGAUCUGGGUACGCUAACAUACCUAAAUCU [JMF 42] (puzzle: Sensor v3, turn-off variant 1) has a reported apparent KD of MS2 coat protein of 0.0967

The sequence listed as AACCAUGAAGGAUAUGACUUAACGAACAUGAGGAUCACCCAUGUGACCGAGCAGUGUUGAUCAGAAGGUUAAGGUG [Rier] (puzzle: Exclusion 5) has a reported apparent KD of MS2 coat protein of 0.139

The sequence listed as UCAUGGUAGCAGGAUAUGCUAGAAAUUUUUUAUGCAGAAGGGCUUACAUGAGGAUCACCCAUGUGUUAGGUUUA [JR_E6_Sub071] (puzzle: Exclusion 6) has a reported apparent KD of MS2 coat protein of 0.221

The sequence listed as GAGGCAUGCCUAGGUCCACACAUGAGGAUCACCCAUGUAAUGACAGGCUUUUUACUCGUUUUAUCGCUAUCGCGUUC [Enaor] (puzzle: Sensor v3, turn-off variant 1) has a reported apparent KD of MS2 coat protein of 0.0118

The sequence listed as GGAGAGUCAGGAUAUCGAAGGUAGUGGAGAGGAGUGUGGUACGAGAAGGGACAUGAGGAUCACCCAUGUAGGUG [JR_Exclusion4)Sub010] (puzzle: Exclusion 4) has a reported apparent KD of MS2 coat protein of 0.478

The sequence listed as UUAUCCGCUGAGGAUAUUAUCACUGAGAGGUGAUGAGAAGGCGGUACAUGAGGAUCACCCAUGUCUAUGGGCAG [Ex-6 Malc#23] (puzzle: Exclusion 6) has a reported apparent KD of MS2 coat protein of 0.864

----------
System: MS2 coat protein
Assay: apparent KD of MS2 coat protein; designed switch direction (-1 OFF switch, 1 ON switch): -1; higher = weaker reporter binding
Settings: Eterna round: R95; input ligand: microRNA oligo, concentration not stated
# label = true if apparent KD of MS2 coat protein >= 90 nM else false

• UCUCAACAUGAGGAUCACCCAUGUGAGGAUAUGAUGCAGCAGUGGUCUACGCUGUGCAUCAGAAGGCACAUGUG (puzzle: Exclusion 1) = true
• UUUUUCGAACAAGCUUCGAACAUGAGGAUCACCCAUGUAGGUAGAUUUGAGUAGGUUUGGAAGUAAGCUCGUCUUAU [JR_SV3TOV1_Sub081] (puzzle: Sensor v3, turn-off variant 1) = true
• AAGAUGAGACAGGAUAUCCACAAAAUCUUGUCAGGAGAAGGGUCUACAUGAGGAUCACCCAUGUGAUUCUUGAA [Inriinvele] (puzzle: Exclusion 6) = false

# ---- query sequence ----
query: Can CAGGUCCGAGGAUAUAUUAUGUGAAACAUGAGGAUCACCCAUGUUAUAUGAUGGAUGUAAAUAGAAGGCGGACUUG [Mat - Exclusion 5 - JL mod - D64] (puzzle: Exclusion 5) be said to have apparent KD of MS2 coat protein at or above 90 nM?
result: false

----------
Test system: MS2 coat protein
Test: apparent KD of MS2 coat protein; designed switch direction (-1 OFF switch, 1 ON switch): -1; higher = weaker reporter binding
Conditions: Eterna round: R95; input ligand: none
# label = yes if apparent KD of MS2 coat protein >= 30 nM else no

These recorded examples may help you get a feel for the data.
• CUGGUCCGAGGAUAUAUUAUGUGAUACAUGAGGAUCACCCAUGUUAUAUGAUGGAUGUUAGUAGAAGGCGGACUAG [JL-ex5-3.21] (puzzle: Exclusion 5) = yes
• AAAAUGCAAGGAUAUCGCGAUAAAUACAUGAGGAUCACCCAUGUGAUUACGUGGGCACGGCGAGAAGGUGCUAAAA [Amadius] (puzzle: Exclusion 5) = yes
• AGUUGGCGAGGAUAUACAUGAGGAUCACCCAUGUGAAGAAGAAGAGUGAGGAAGAAAAGUAGAAGGCGCUGACA [Mat - Exclusion 3 - Mod of Salish D38] (puzzle: Exclusion 3) = yes

query: Can GCUGCAUCAGGAUAUAUACGGUAUCACAUGAGGAUCACCCAUGUUCGUGUGGAACUGAACGUAGAAGGGAUUAGAU [Aramaa] (puzzle: Exclusion 5) be said to have apparent KD of MS2 coat protein at or above 30 nM?
result: no

query: Can AAAUAACAAGCAAGAUCCUACAUGAGGAUCACCCAUGUGCUCGUCUUAAUAAGUACUAUCACGAAAGUGAUAGUACA [Mat - Sensor v3 - turn-off var 1 - Eli Mod - D60] (puzzle: Sensor v3, turn-off variant 1) be said to have apparent KD of MS2 coat protein at or above 30 nM?
result: yes

query: Can GGUUUUCUUUUCCUUUCUUACAUGAGGAUCACCCAUGUUUCUUGUCGUGCUCGCGUUGCUCGUCUGUCUGUCUGUUG [salish99_TOv1_r3_076(!)] (puzzle: Sensor v3, turn-off variant 1) be said to have apparent KD of MS2 coat protein at or above 30 nM?
result: yes

----------
Test system: MS2 coat protein
Assay: apparent KD of MS2 coat protein; designed switch direction (-1 OFF switch, 1 ON switch): -1; higher = weaker reporter binding
Details: input ligand: FMN 200 uM
experimental.endpoint: apparent KD of MS2 coat protein (nM)
Note: unit nM is implicit; provide only the numeric part.

For orientation, consider the following solved cases.
- AAGUCAACAUGAGGAUCACCCAUGUCCAAGUUGAUGUCCUGUGAGGAUAUGUGUAAACGGCCGGCACAGAAGGCACAAGACGCG [Eternabot solution 5] (Eterna round: R96, puzzle: Exclusion NG 3): 32.3
- CCAGUGUAAGGAUAUCCGUUGCCGGAUAGAUGAUUAACAGCGGAGAAGGUACAUGAGGAUCACCCAUGUGUCCA [Eternabot (L1) Solution 8] (Eterna round: R97, puzzle: Exclusion 4): 30.9
- GCAAGCUUAAUCACUAUGAACAUGAGGAUCACCCAUGUAUAAGGUAUUACUUUUGGGCCCUUUAUUACUCGUCUUAU [JR_STOV1_Sub031] (Eterna round: R97, puzzle: Sensor, turn-off variant 1): 51.9

The sequence listed as UAUUUAUAUGAAGGAUAUACUUAACAUGAGGAUCACCCAUGUGGUGUUGUGAGUGAGUGAGUUUAGUAGAAGGUCAAGUAUUUU [JMF's solution 53] (Eterna round: R96, puzzle: Exclusion NG 2) has a reported apparent KD of MS2 coat protein of 844

The sequence listed as GGCACACAUGAGGAUCACCCAUGUGAGGAUAUGAGGCGAUCGUCGAAAGACGAUAGCCUCAGAAGGCACAUGCC [Eli x1 4.10] (Eterna round: R97, puzzle: Exclusion 1) has a reported apparent KD of MS2 coat protein of 42.9

----------
Test system: K4 kissing-loop RNA reporter;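 also: bound reporter read as fluorescence of individual clusters on recovered sequencing chips by microscopy, with normalized cluster intensities fitted with a binding model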
Test: apparent KD of K4 kissing-loop reporter; higher = weaker reporter binding
Settings: Eterna round: R107; input ligand: none
Recorded apparent KD of K4 kissing-loop reporter values for a group of sequences are listed next.
Note: unit nM is implicit; provide only the numeric part.

For orientation, consider the following solved cases.
- GCGGCCCAGCCGGAUACCAGUGAGCCGCUGGGAACCGCGGGCCCAGAGUGAUGUUCGGGACACCCUUGGCAGCCGCCUGGGUCGC [#2 Same State - Theophylline B Attempt #20 (HarryS)]: 643
- UACUAUAUUCUGUCGUUUAUAUUAUUUUGUCAGGAUAUCGUUUAUUCGAGAAGGGACACUAUCUAGUGAUGUUAGAUUUUUCUUU [JR_Nu_ExcFMNA_Sub029]: 86.7
- AAAAUUGCGGUCGAAAGAACUUCUUGCAUACGAGGACCGGUACGGCCGCCACUCGAGUCAAGUGAUGUUUGAUAAUCUAUUAUUA [JR_ExcTryptoA_Sub012]: 215
- CGAACCUCCAAAGGAUAUCUCGUUUAGUGAUGUUUUGCGUAGUAUCAGGAUAGAAUAUUGAUUCAGAGAGAAGGUUGACGUUGGU [theeternabot_exclusion_KL_FMN_B_14]: 684

Lab note: sequence GCGCGUCAUGUCAGCGGUGACUAUGUCGAUACCAGCGCCGCAAGGCGCCCUUGGCAGCGACGCGCUGGAGUGAUGUUCCGACGGC [#2 Exclusion - Theophylline A Attempt #9 (HarryS)] tested on K4 kissing-loop RNA reporter; recorded apparent KD of K4 kissing-loop reporter was 148
